Reference source for all entries: the RNAGym collection of RNA variant scans (doi:10.7554/elife.80360)

B1: HDV Ribozyme (parent)
chain: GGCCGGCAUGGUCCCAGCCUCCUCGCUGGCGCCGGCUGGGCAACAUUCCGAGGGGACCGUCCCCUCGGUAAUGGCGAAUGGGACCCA

Variants of: B1
protocol description: self-cleavage, relative activity (ratio to wild type); higher = more cleavage; co-transcriptional
Recorded self-cleavage values for a group of variants are listed next.
measure name: self-cleavage

>  <mutant code>
C15U C32A

>  <measure name>
self-cleavage

>  <measurement>
0.214

$$$$
>  <mutant code>
U20A G59U

>  <measure name>
self-cleavage

>  <measurement>
0.222

$$$$
>  <mutant code>
G17U U65C

>  <measure name>
self-cleavage

>  <measurement>
0.332

$$$$
>  <mutant code>
G28A C61U

>  <measure name>
self-cleavage

>  <measurement>
0.0631

$$$$
>  <mutant code>
C24U A77C

>  <measure name>
self-cleavage

>  <measurement>
0.119

$$$$
>  <mutant code>
C24G A51G

>  <measure name>
self-cleavage

>  <measurement>
0.111

$$$$
>  <mutant code>
A8C U9C

>  <measure name>
self-cleavage

>  <measurement>
0.962

$$$$
>  <mutant code>
C7G C15G

>  <measure name>
self-cleavage

>  <measurement>
0

$$$$
>  <mutant code>
G2C G53A

>  <measure name>
self-cleavage

>  <measurement>
0.108

$$$$
>  <mutant code>
C36A A70C

>  <measure name>
self-cleavage

>  <measurement>
0.128

$$$$
>  <mutant code>
C26U G28C

>  <measure name>
self-cleavage

>  <measurement>
0.19

$$$$
>  <mutant code>
C3G C18G

>  <measure name>
self-cleavage

>  <measurement>
0.0475

$$$$
>  <mutant code>
C33G A71G

>  <measure name>
self-cleavage

>  <measurement>
0.178

$$$$
>  <mutant code>
C30G G39A

>  <measure name>
self-cleavage

>  <measurement>
0.0608

$$$$
>  <mutant code>
G29C G34A

>  <measure name>
self-cleavage

>  <measurement>
0

$$$$
>  <mutant code>
A43U G54U

>  <measure name>
self-cleavage

>  <measurement>
0.432

$$$$
>  <mutant code>
C22A G59U

>  <measure name>
self-cleavage

>  <measurement>
0.377

$$$$
>  <mutant code>
C48U G50C

>  <measure name>
self-cleavage

>  <measurement>
0.965

$$$$
>  <mutant code>
A43C U60C

>  <measure name>
self-cleavage

>  <measurement>
0.532

$$$$
>  <mutant code>
G5C G25A

>  <measure name>
self-cleavage

>  <measurement>
0.0639

$$$$
>  <mutant code>
G55C A87C

>  <measure name>
self-cleavage

>  <measurement>
1.11

$$$$
>  <mutant code>
G76U G81C

>  <measure name>
self-cleavage

>  <measurement>
0.628

$$$$
>  <mutant code>
C44G U47A

>  <measure name>
self-cleavage

>  <measurement>
0.653

$$$$
>  <mutant code>
G1C G50A

>  <measure name>
self-cleavage

>  <measurement>
0.277

$$$$
>  <mutant code>
C63U C75G

>  <measure name>
self-cleavage

>  <measurement>
0.0755

$$$$
>  <mutant code>
G10C C57A

>  <measure name>
self-cleavage

>  <measurement>
1.06

$$$$
>  <mutant code>
U60G G80C

>  <measure name>
self-cleavage

>  <measurement>
0.141

$$$$
>  <mutant code>
C48G A51U

>  <measure name>
self-cleavage

>  <measurement>
1.02

$$$$
>  <mutant code>
U12G G54A

>  <measure name>
self-cleavage

>  <measurement>
0.831

$$$$
>  <mutant code>
G31C C57G

>  <measure name>
self-cleavage

>  <measurement>
0.291

$$$$
>  <mutant code>
C49G G55U

>  <measure name>
self-cleavage

>  <measurement>
0.844

$$$$
>  <mutant code>
G38U C57A

>  <measure name>
self-cleavage

>  <measurement>
0.323

$$$$
>  <mutant code>
G31A C64A

>  <measure name>
self-cleavage

>  <measurement>
0.359

$$$$
>  <mutant code>
A45G C84G

>  <measure name>
self-cleavage

>  <measurement>
0.623

$$$$
>  <mutant code>
C26G U79A

>  <measure name>
self-cleavage

>  <measurement>
0.692

$$$$
>  <mutant code>
C3A C36U

>  <measure name>
self-cleavage

>  <measurement>
0.0915

$$$$
>  <mutant code>
A8G C48U

>  <measure name>
self-cleavage

>  <measurement>
1.26

$$$$
>  <mutant code>
G5A G76U

>  <measure name>
self-cleavage

>  <measurement>
0.148

$$$$
>  <mutant code>
C61A A83U

>  <measure name>
self-cleavage

>  <measurement>
0.47

$$$$
>  <mutant code>
C48G A83C

>  <measure name>
self-cleavage

>  <measurement>
0.573

$$$$
>  <mutant code>
C64G C86U

>  <measure name>
self-cleavage

>  <measurement>
0.845

$$$$
>  <mutant code>
C14G C19A

>  <measure name>
self-cleavage

>  <measurement>
0

$$$$
>  <mutant code>
G73U C86U

>  <measure name>
self-cleavage

>  <measurement>
0.448

$$$$
>  <mutant code>
G67U G76U

>  <measure name>
self-cleavage

>  <measurement>
1.08

$$$$
>  <mutant code>
C4U C15A

>  <measure name>
self-cleavage

>  <measurement>
0.302

$$$$
>  <mutant code>
G73C A77U

>  <measure name>
self-cleavage

>  <measurement>
0.151

$$$$
>  <mutant code>
C61G A78U

>  <measure name>
self-cleavage

>  <measurement>
0.219

$$$$
>  <mutant code>
C19G C22A

>  <measure name>
self-cleavage

>  <measurement>
0

$$$$
>  <mutant code>
C3G G59A

>  <measure name>
self-cleavage

>  <measurement>
0.831

$$$$
>  <mutant code>
C13U U60C

>  <measure name>
self-cleavage

>  <measurement>
0.831

$$$$
>  <mutant code>
G34C C64G

>  <measure name>
self-cleavage

>  <measurement>
0.306

$$$$
>  <mutant code>
C18G U20G

>  <measure name>
self-cleavage

>  <measurement>
0.185

$$$$
>  <mutant code>
A16C G54C

>  <measure name>
self-cleavage

>  <measurement>
0.87

$$$$
>  <mutant code>
C13A C57G

>  <measure name>
self-cleavage

>  <measurement>
0.19

$$$$
>  <mutant code>
C41A C63A

>  <measure name>
self-cleavage

>  <measurement>
0.969

$$$$
>  <mutant code>
C58G G82C

>  <measure name>
self-cleavage

>  <measurement>
0.302

$$$$
>  <mutant code>
C64U C66G

>  <measure name>
self-cleavage

>  <measurement>
0.748

$$$$
>  <mutant code>
C61A A78C

>  <measure name>
self-cleavage

>  <measurement>
0.145

$$$$
>  <mutant code>
A45C C64U

>  <measure name>
self-cleavage

>  <measurement>
0.73

$$$$
>  <mutant code>
C63A U65A

>  <measure name>
self-cleavage

>  <measurement>
0.427

$$$$
>  <mutant code>
C4G C18U

>  <measure name>
self-cleavage

>  <measurement>
0.0282

$$$$
>  <mutant code>
U69C G74A

>  <measure name>
self-cleavage

>  <measurement>
0.554

$$$$
>  <mutant code>
G34C G35A

>  <measure name>
self-cleavage

>  <measurement>
0.115

$$$$
>  <mutant code>
C7A G80C

>  <measure name>
self-cleavage

>  <measurement>
0.192

$$$$
>  <mutant code>
C15G G17A

>  <measure name>
self-cleavage

>  <measurement>
0.133

$$$$
>  <mutant code>
U12C U23G

>  <measure name>
self-cleavage

>  <measurement>
0.208

$$$$
>  <mutant code>
G10C U23A

>  <measure name>
self-cleavage

>  <measurement>
1.04

$$$$
>  <mutant code>
G39A A51G

>  <measure name>
self-cleavage

>  <measurement>
0.458

$$$$
>  <mutant code>
G38A C86A

>  <measure name>
self-cleavage

>  <measurement>
0.247

$$$$
>  <mutant code>
G28U G67A

>  <measure name>
self-cleavage

>  <measurement>
0.164

$$$$
>  <mutant code>
G31U U60A

>  <measure name>
self-cleavage

>  <measurement>
0.379

$$$$
>  <mutant code>
C49A U79G

>  <measure name>
self-cleavage

>  <measurement>
0.665

$$$$
>  <mutant code>
C24G U47G

>  <measure name>
self-cleavage

>  <measurement>
0.0978

$$$$
>  <mutant code>
G2C G50C

>  <measure name>
self-cleavage

>  <measurement>
0.0277

$$$$
>  <mutant code>
U20C C84U

>  <measure name>
self-cleavage

>  <measurement>
0.111

$$$$
>  <mutant code>
G17A A78C

>  <measure name>
self-cleavage

>  <measurement>
0.268

$$$$
>  <mutant code>
G11U C33U

>  <measure name>
self-cleavage

>  <measurement>
0.0997

$$$$
>  <mutant code>
A45U G67U

>  <measure name>
self-cleavage

>  <measurement>
0.801

$$$$
>  <mutant code>
C13A U72A

>  <measure name>
self-cleavage

>  <measurement>
0

$$$$
>  <mutant code>
U27A C30U

>  <measure name>
self-cleavage

>  <measurement>
0.677

$$$$
>  <mutant code>
G5C C66U

>  <measure name>
self-cleavage

>  <measurement>
0.106

$$$$
>  <mutant code>
G17C C33G

>  <measure name>
self-cleavage

>  <measurement>
0

$$$$
>  <mutant code>
C22G C85U

>  <measure name>
self-cleavage

>  <measurement>
0.0845

$$$$
>  <mutant code>
U23G G50A

>  <measure name>
self-cleavage

>  <measurement>
0.614

$$$$
>  <mutant code>
U37G C41U

>  <measure name>
self-cleavage

>  <measurement>
0.156

$$$$
>  <mutant code>
C24G G76C

>  <measure name>
self-cleavage

>  <measurement>
0.219

$$$$
>  <mutant code>
G2U A83G

>  <measure name>
self-cleavage

>  <measurement>
0.0815

$$$$
>  <mutant code>
A8G U27C

>  <measure name>
self-cleavage

>  <measurement>
0.791

$$$$
>  <mutant code>
G31C A77C

>  <measure name>
self-cleavage

>  <measurement>
0.225

$$$$
>  <mutant code>
C26U C33A

>  <measure name>
self-cleavage

>  <measurement>
0.307

$$$$
>  <mutant code>
G25U G53U

>  <measure name>
self-cleavage

>  <measurement>
0.145

$$$$
